Values of IC50 for SYK kinase (Homo sapiens, UniProt P43405), collected from a number of published sources:
observable: IC50

- COc1cc(-c2cc3nccc(-c4cccc(C(=O)N[C@@H]5CCC[C@H]5O)c4)c3o2)cc(OC)c1OC: 0.3 to 3 µM
- COCCCNc1nccn2nc(Nc3cc(C)cc(C)c3)nc12: 3 to 50 µM
- COc1cc(-c2cc3nccc(-c4cccc(C(=O)N[C@@H]5COC[C@@H]5N)c4)c3o2)cc(OC)c1OC: 3 to 50 µM
- CN1CC(=O)Nc2cccc(c2)Nc2ncc(F)c(n2)Nc2ccc3c(c2)NC(=O)[C@](C)(O3)C1=O (single isomer, unassigned): < 0.3 µM

---

# pIC50 against SYK kinase (Homo sapiens, UniProt P43405), merged from multiple literature sources
pIC50: −log10 of the molar value.
observable: pIC50

- COc1cc(Nc2cc(Oc3ccc(NC(=O)Nc4cc(C(C)(C)C)cc(N(CCO)S(C)(=O)=O)c4OC)c4ccccc34)ccn2)ccc1C(=O)NCCN1CC[S+]([O-])CC1: 7.26
- NC(=O)N1CCO[C@H](COc2nc(-c3ccc4[nH]ncc4c3)cc3nccnc23)C1: 6.95
- N[C@H]1COCC[C@H]1Nc1nc(-c2cc(C(F)F)ns2)c2c(c1F)CNC2=O: 7.30
- COc1cc(Nc2nccc(Oc3ccc(NC(=O)Nc4cc(C(C)(C)C)cc(NS(C)(=O)=O)c4OC)c4ccccc34)n2)cc(C(=O)NCCN2CCOCC2)c1: 6.38

---

A compilation of published IC50 results with UniProtKB P43405.
observable: IC50

- COc1cc(-c2cc3nccc(-c4ccccc4)c3o2)cc(OC)c1OC: < 300 nM
- COc1cc(-c2cc3nccc(-c4cc(C)cc(C(=O)NCCN)c4)c3o2)cc(OC)c1OC: 300 to 3000 nM
- COCCCNc1nccn2nc(Nc3cccc(C(F)(F)F)c3)nc12: 3000 to 50000 nM
- COc1cc(Nc2cc(Oc3ccc(NC(=O)Nc4cc(C(C)(C)C)cc(CC(N)=O)c4OC)c4ccccc34)ccn2)cc(S(=O)(=O)N(C)C)c1: > 1380 nM

---

Compiled literature IC50, tested on UniProt P43405.
observable: IC50

- COc1cc(F)cc(Nc2cc(Oc3ccc(NC(=O)Nc4cc(C(C)(C)C)cc(P(C)(C)=O)c4OC)c4ccccc34)ccn2)c1: 712 nM
- CC1(C)C(=O)Nc2cc(Nc3nc4c(NCCCNc5nccn6nc(Nc7ccc8c(c7)NC(=O)C8(C)C)nc56)nccn4n3)ccc21: 3000 to 50000 nM
- C#Cc1cc(Nc2nccc(Oc3ccc(NC(=O)Nc4cc(C(C)(C)C)nn4CC)c4ccccc34)n2)cc(C(=O)NCCOCCOCCOC)c1: > 1000 nM
- COc1c(NC(=O)Nc2ccc(Oc3ccnc(Nc4cc(C#N)cc(OCCN5CCOCC5)c4)c3)c3ccccc23)cc(C(C)(C)C)cc1[S+](C)[O-] (stereo not drawn): > 1340 nM
- Cn1cc(-c2ccnc3cc(-c4ccc(N5CCOCC5)cc4)oc23)cn1: 300 to 3000 nM
- NC(=O)c1ncc(N[C@@H]2CCCC[C@@H]2N)nc1Nc1cccc2cc[nH]c12: 2.7 nM
- CS(=O)(=O)N1CCC(c2ccc(-c3cc4nccnc4c(OC[C@@H]4CNC(=O)C4)n3)cc2)CC1: 52 nM
- CC(C)Cn1cc(Nc2nc(-c3cccc(S(N)(=O)=O)c3)nc3cn[nH]c23)cn1: 10 to 100 nM
- C[C@@H]1CN(c2ccc(-c3cc4nccnc4c(OC[C@@H]4CN(S(C)(=O)=O)CCO4)n3)cc2)C[C@H](C)O1: 29 nM
- CS(=O)(=O)c1cccc2nc(Nc3cnn(C4CCOCC4)c3)c3[nH]ncc3c12: 100 to 1000 nM
- CS(=O)(=O)c1cccc(Nc2nc3ccc(S(C)(=O)=O)cc3c3cn[nH]c23)c1: 100 to 1000 nM
- Cn1cc(-c2nccn3nc(Nc4cc5c(cc4F)C(C)(C)CC(=O)N5)nc23)cn1: 300 to 3000 nM
- CCOC(=O)c1cnn2c1CN(c1nccn3nc(Nc4ccc5c(c4)NC(=O)C5(C)C)nc13)CC2: 300 to 3000 nM
- Cn1c(=O)c(Nc2ccc(N3CCOCC3)cn2)cc2c(F)c(-c3cc[nH]n3)ccc21: 15 nM
- CCN(CC)c1nccn2nc(Nc3ccc4c(c3)NC(=O)C4(C)C)nc12: < 100 nM

---

Listed below are compounds with IC50 for UniProtKB P43405, each taken from published literature.
observable: IC50

* COc1c(NC(=O)c2ccc(C)c(-c3ccc4nc(Nc5cc(OS(C)(=O)=O)cc(C(=O)NCCN6CCOCC6)c5)ncc4c3)c2)cc(C(C)(C)C)cc1NS(C)(=O)=O | > 1160 nM
* Oc1cccc(Cc2c[nH]c3ncc(-c4ccsc4)cc23)c1 | ≤ 10000 nM
* COc1ccc(-c2cc3nccnc3c(OC[C@@H]3CN(S(C)(=O)=O)CCO3)n2)cc1OC | 13 nM
* COc1cc(-c2cc3nccc(-c4cccc(C(=O)NCC5CCCN5C(=O)OC(C)(C)C)c4)c3o2)cc(OC)c1OC (stereo not shown) | 300 to 3000 nM

---

We begin with pIC50 values for UniProt:P43405, as collected from the published literature.
pIC50: −log10 of the molar value.
observable: pIC50

* N[C@H]1COCC[C@H]1Nc1nc(-c2ccns2)c2c(c1F)CNC2=O | 7.90
* Cn1c(=O)c(Nc2ccc(N)cn2)cc2c(F)c(-c3cc[nH]n3)ccc21 | 7.32
* CC(=O)N1CCN(c2ccc(Nc3nc(NC4CCC4)c4nc[nH]c4n3)cc2)CC1 | 8.44
* COc1cc(Nc2nc(-c3cnc4c(c3)NCCS4)cn3ccnc23)ccc1N1CCOCC1 | 8.70

---

pIC50: −log10 of the molar value.
The compounds below each have a reported pIC50 tested on SYK kinase (Homo sapiens, UniProt P43405); the values come from various publications.
observable: pIC50

- CC(=O)N1CCN(c2ccc(-c3cc4nccnc4c(O[C@@H]4CCOC4)n3)cc2)CC1: 7.48
- COc1ccc(Nc2nc(NC3C4C=CC(C4)C3C(N)=O)c3scc(C)c3n2)cc1 (racemic): < 5.00
- CC(=O)N1CCN(c2ccc(Nc3nc(-c4cnn(C)c4)nc4cn[nH]c34)cc2)CC1: 7.00 to 8.00
- Cc1ccc(-n2nc(C(C)(C)C)cc2NC(=O)Nc2ccc(OCc3ccnc(Nc4cnc(C5CC5)cn4)c3)c3ccccc23)cc1: < 4.81
- COCC(C)(C)n1cc(Nc2nc(C3CC3)nc3cn[nH]c23)cn1: 7.00 to 8.00
- Cc1cc(Nc2cc(Oc3ccc(NC(=O)Nc4cc(C(C)(C)C)nn4-c4ccc(OCCN5CCOCC5)cc4)c4ccccc34)ccn2)cc2cn[nH]c12: > 9.00
- COc1ccc(C(N)=O)cc1-c1cc2nccc(-c3ccnc(NC4CCCCC4N)c3)c2o1 (stereo not shown): > 7.00
- COc1c(NC(=O)Nc2ccc(Oc3ccnc(Nc4cc(C)c5[nH]ncc5c4)n3)c3ccccc23)cc(C(C)(C)C)cc1P(C)(C)=O: 7.80
- O=C(C1CC1)N1CCCc2ccc(Nc3nc(C4CC4)nc4cn[nH]c34)cc21: 6.00 to 7.00
- CC(C)(C)c1cc(NC(=O)Nc2ccc(Oc3ccnc(Nc4ccccc4)n3)c3ccccc23)n(-c2cccc(CP(C)(C)=O)c2)n1: 7.01
- Clc1c(Nc2nc(C3CCC3)nc3cn[nH]c23)cnn1C1CCNCC1: 6.00 to 7.00
- COc1ccc(Nc2nc3c(-c4cccc(NS(C)(=O)=O)c4)nccn3n2)cn1: 5.52 to 6.52
- CN1CCN(c2ccc(Nc3nc(NC4CC4)c4c(S(C)(=O)=O)n[nH]c4n3)cc2)CC1: ≥ 6.70
- FCCn1cc(Nc2nc(-c3ccc4cn[nH]c4c3)nc3cn[nH]c23)cn1: > 8.00
- CCn1cc(-c2ccnc3cc(-c4cc(C(N)=O)ccc4OC)oc23)cn1: 5.52 to 6.52
- CC(C)(C)N1CCN(c2ccc(Nc3nc(-c4ccco4)nc4cn[nH]c34)cc2)CC1: > 8.00

---

Collected pIC50 for SYK kinase (Homo sapiens) across several studies; compounds listed below.
pIC50: −log10 of the molar value.
observable: pIC50

- FC(F)(F)Cn1cc(Nc2nc(-c3ccoc3)nc3cn[nH]c23)cn1: 6.00 to 7.00
- Cc1c(Nc2ccnc3cc(-c4ccc(CO)cc4)oc23)ccc2[nH]ccc12: 5.52 to 6.52
- N[C@H]1CCCC[C@H]1Nc1nc(C#Cc2ccccc2)c2c(c1F)CNC2=O: 7.20
- COc1ccc2nc(Nc3cnn(C)c3)c3n[nH]cc3c2c1: 6.00 to 7.00
- COc1cc(Nc2cc(Oc3ccc(NC(=O)Nc4cc(C(C)(C)C)cc(NS(C)(=O)=O)c4OC)c4ccccc34)ccn2)ccc1C(=O)NCCCN1CCN(C)CC1: 7.21
- COc1cc(-c2cc3nccc(-c4c(OC)cccc4OC)c3o2)cc(OC)c1OC: > 6.52
- Ic1cccc(Nc2nccc(-c3nccs3)n2)c1: > 6.30
- COc1cc(-c2cc3nccc(-c4ccc(CO)nc4)c3o2)cc(OC)c1OC: > 6.52
